Recorded inhibition values for a group of compounds are listed next.
# measured-target: Solute carrier family 2, facilitated glucose transporter member 1 (Homo sapiens) (UniProt P11166)
# Sequence (P11166 whole entry): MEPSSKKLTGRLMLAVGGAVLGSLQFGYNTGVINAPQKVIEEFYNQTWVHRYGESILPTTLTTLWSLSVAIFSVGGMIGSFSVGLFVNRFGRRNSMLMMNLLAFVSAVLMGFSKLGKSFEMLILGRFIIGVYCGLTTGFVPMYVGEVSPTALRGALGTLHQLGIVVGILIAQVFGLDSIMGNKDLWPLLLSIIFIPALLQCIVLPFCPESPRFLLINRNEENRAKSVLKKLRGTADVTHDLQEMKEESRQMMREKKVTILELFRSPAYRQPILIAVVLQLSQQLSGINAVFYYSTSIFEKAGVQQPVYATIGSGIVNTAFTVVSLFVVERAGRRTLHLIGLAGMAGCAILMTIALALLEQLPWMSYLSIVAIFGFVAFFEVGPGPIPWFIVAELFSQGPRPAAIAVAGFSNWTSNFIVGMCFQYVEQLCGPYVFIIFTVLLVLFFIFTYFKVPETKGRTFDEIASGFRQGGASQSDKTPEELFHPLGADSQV
# assay-comment: ST_JUDE_LEISH: Cytotoxicity at 2uM final concentration against transgenic Leishmania Mexicana promastigotes LmGLUT1 that are glucose transport deficient and complemented with the human glucose transporter GLUT1. Activity is measured by DNA content using SYBR green in vitro
# Assay type: functional
All answers are understood in %, so give the number only.

Some solved cases for reference:
- C=CCN1C(=O)CN(S(=O)(=O)c2ccc(-n3nc(C)cc3C)cc2)C1=S: 3.32
- CC(C)CCNC(=N)c1ccc(OCCCCCOc2ccc(C(=N)NCCC(C)C)cc2)cc1: 12.4
- O=C(NCCN1CCOCC1)c1csc(C2CCCN(C(=O)c3ccc(O)c(-c4cc(Cl)cc(Cl)c4)c3)C2)n1 (stereo not given): 8.92

Q: Fill in: inhibition of "Cc1cccc(Cl)c1S(=O)(=O)Nc1cccc(CCN2CCC(N3CCCCC3)CC2)c1" is ___
Result: -0.03

Q: And "Cc1c2ccc(N(C)c3ccnc(Nc4ccc5c(c4)nc(NC(C)C)n5C)n3)cc2nn1C" ?
Result: 0.46

Q: And then CC1CN(c2ncc(-c3ccc(CNC4Cc5ccccc5C4)cc3)cn2)CC(C)N1 (stereo not given) , what is it?
Result: 2.69

---

# measured-target: Glucose transporter (Leishmania mexicana)
# assay-comment: ST_JUDE_LEISH: Cytotoxicity at 2uM final concentration against transgenic Leishmania Mexicana promastigotes LmGT2 that are glucose transport deficient and complemented with the L. Mexicana glucose transporter 2. Activity is measured by DNA content using SYBR green in vitro
# Format: functional
Entries and their inhibition
Give the number; % is assumed, so skip it.

Worked cases, answers included:
• COc1ccc2nccc(NC(=O)C3CCC(NCc4cnc(SC)c([N+](=O)[O-])c4)CC3)c2n1 (stereo not given) = 20.7
• CC(C)C[C@H](Nc1ccc(C#N)c2ccccc12)C(=O)NC(C)(C)C12CC3CC(CC(C3)C1)C2 = 2.11
• Cc1cccc2nc(-c3cccc(-c4cccc(CN5CCCC5CN)c4)c3)[nH]c12 (stereo not given) = -2.17

Q: Suppose we examine the compound "Oc1ccc(Br)cc1-c1nc2ccc(Cl)cc2nc1-c1cc(Br)ccc1O" ; what inhibition value has been reported?
Result: 2.66

Q: Next up: "O=C(Nc1ccccc1O)C1CCN(c2ncnc3cc(-c4ccc(F)cc4)sc23)CC1"
Result: -2.46

---

# measured-target: Hexose transporter 1 (Plasmodium falciparum) (UniProt O97467)
# assay-comment: ST_JUDE_LEISH: Cytotoxicity at 2uM final concentration against transgenic Leishmania Mexicana promastigotes LmPfHT that are glucose transport deficient and complemented with the Plasmodium falciparum hexose transporter. Activity is measured by DNA content using SYBR green in vitro
# Format: functional
assay-readout: inhibition (%)
Respond numerically; units are % and should not be typed.

Q: Fill blank: measured inhibition of the compound "CCc1cc2c(N)nc(N)nc2nc1-c1ccccc1" is ____.
Result: 3.93

---

# measured-target: Hexose transporter 1 (Plasmodium falciparum) (UniProt O97467)
# assay-comment: ST_JUDE_LEISH: Cytotoxicity at 2uM final concentration against transgenic Leishmania Mexicana promastigotes LmPfHT that are glucose transport deficient and complemented with the Plasmodium falciparum hexose transporter. Activity is measured by DNA content using SYBR green in vitro
# Type: functional
// label = true (1) if inhibition is not less than 2%, otherwise false (0)

Q: // inclusive: inhibition at least 2%? input: CN1CCCC(CN2CCN(Cc3cccc(-c4ccc(-c5nc6cc(C(F)(F)F)ccc6[nH]5)cc4)c3)CC2)C1 (centres undefined)
Result: false (0)

Q: Ok, now "Cc1cc(-c2ccc3c(c2)CCN(CCCOc2ccc4c(c2)CCN4C(=O)/C=C/c2ccccc2Cl)CC3)no1"
Result: true (1)

Q: Further, for "NC1=NC(c2ccccc2)(c2ccccc2)C(=O)N1CCCCc1ccccc1" ?
Result: false (0)
